# tested_target: UniProt O42275
# Sequence (O42275 whole entry): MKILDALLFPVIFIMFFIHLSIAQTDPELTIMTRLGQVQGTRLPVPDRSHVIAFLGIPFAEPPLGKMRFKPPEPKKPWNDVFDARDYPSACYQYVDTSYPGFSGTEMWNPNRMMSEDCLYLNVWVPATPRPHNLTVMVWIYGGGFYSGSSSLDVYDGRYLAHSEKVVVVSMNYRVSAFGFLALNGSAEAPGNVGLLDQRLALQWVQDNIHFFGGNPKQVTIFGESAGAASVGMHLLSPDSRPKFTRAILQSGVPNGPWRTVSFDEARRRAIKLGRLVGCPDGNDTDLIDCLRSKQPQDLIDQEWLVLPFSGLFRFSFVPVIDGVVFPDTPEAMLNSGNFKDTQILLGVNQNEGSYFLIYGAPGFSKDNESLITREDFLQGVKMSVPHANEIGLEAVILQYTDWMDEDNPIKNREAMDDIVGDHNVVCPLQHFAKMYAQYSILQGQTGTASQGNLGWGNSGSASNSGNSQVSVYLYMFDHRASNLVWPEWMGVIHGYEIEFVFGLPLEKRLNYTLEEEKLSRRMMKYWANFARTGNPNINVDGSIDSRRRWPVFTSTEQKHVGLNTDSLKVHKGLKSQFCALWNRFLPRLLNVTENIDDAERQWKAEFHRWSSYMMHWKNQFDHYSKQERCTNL
recorded_metric: pIC50
pIC50 is a log-scale quantity: -log10 of the concentration expressed in molar.

Some entries whose results are on file:
>>> df
                                   compound   tested_target  recorded_metric  endpoint_result
0     O=c1c2ccccc2[se]n1C1CCN(Cc2ccccc2)CC1  UniProt O42275            pIC50             4.75
1  COc1cc2[se]n(CCC3CCN(Cc4ccccc4)CC3)c(=O)c2cc1OC  UniProt O42275            pIC50             7.38
2  O=c1c2ccc(F)cc2[se]n1CC1CCN(Cc2ccccc2)CC1  UniProt O42275            pIC50             4.91
3   O=c1c2ccccc2[se]n1CCC1CCN(Cc2ccccc2)CC1  UniProt O42275            pIC50             6.42

Below: the item to evaluate.
Reported pIC50 (UniProt O42275) for entry O=c1c2ccccc2[se]n1-c1ccccc1 [EBSELEN] is 4.39
